Reference for the values: PubChem BioAssay

# procedure_summary: growth inhibitors of H69AR lung tumor, primary screen, human, duplicate replicates (AID 580);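 also: 100% = mean luminescence of untreated wells and 0% = no signal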
# recorded_conditions: H69AR lung tumor cells viability, ATP luminescence, 72 h; at 10 µM; active compounds read low
result_type: viability (%)
Your answer should be a plain number; it is taken to be in %.

// lookup viability for CC(C)(CSc1nncn1N)NS(=O)(=O)c1ccc(Cl)cc1
98.3

// lookup viability for COC(=O)CN(Cc1ccco1)S(=O)(=O)c1ccccc1
77.6

// lookup viability for CC(O)Cn1cnc2c1c(=O)n(C)c(=O)n2C (configuration not stated)
95.8

// lookup viability for CCN1CCN(c2nc3c(c(=O)n(C)c(=O)n3C)n2Cc2cccc3ccccc23)CC1
87.7

// lookup viability for CCc1c(C)c2ccc(OCC(=O)OC)cc2oc1=O
94.4

// lookup viability for COc1cccc(-c2cc(C(=O)Nc3c(C)nn(Cc4ccccc4)c3C)no2)c1
98.2

// lookup viability for CC(NC(=O)NCCCC(=O)O)(C(F)(F)F)C(F)(F)F
105

// lookup viability for Cc1ccc2c(c1)N(CC(=O)N1CCCCC1c1cccnc1)C(=O)CO2 (configuration not stated)
95

// lookup viability for Cc1nc2ncnn2c(N2CCC(C(=O)NCC3CCCO3)CC2)c1Cc1ccccc1 (configuration not stated)
89.5

// lookup viability for NC(N)=Nc1nc(CSCC/C(N)=N/S(N)(=O)=O)cs1
95.8

// lookup viability for CCS(=O)(=O)N1CCC(C(=O)NCc2cccs2)CC1
99.3

// lookup viability for CC(C)(C)c1ccc(OCC(=O)O)cc1
104

// lookup viability for CC(=O)N=c1sc(S(N)(=O)=O)nn1C
93.9

// lookup viability for COc1ccc(CC(=O)Nc2c3c(nn2-c2cccc(Cl)c2)CS(=O)C3)cc1 (configuration not stated)
104

// lookup viability for Cc1cccc(Nc2ncc3c(n2)CC(c2ccco2)CC3=O)c1 (configuration not stated)
75.5

// lookup viability for COc1cc2nc(SCC(=O)NC3CC3)n(CCC3=CCCCC3)c(=O)c2cc1OC
74.5

// lookup viability for Cn1cccc1C(=O)NC(=O)CSc1nnc(C2CC2)n1-c1ccccc1
85.7
